target: HisAviTEV-hSTING (139-342) human REF-mutated protein (Homo sapiens); construct: made in house; host or cells: E. coli Rosetta 2 (DE3), co-expressed with BirA (1-321); test: Protein thermal shift assay, STING C-terminal binding domain protein; conditions: test compound final concentration 0.5 mM
Sequence (Q86WV6 with tags, fused parts or gaps, stated change not applied): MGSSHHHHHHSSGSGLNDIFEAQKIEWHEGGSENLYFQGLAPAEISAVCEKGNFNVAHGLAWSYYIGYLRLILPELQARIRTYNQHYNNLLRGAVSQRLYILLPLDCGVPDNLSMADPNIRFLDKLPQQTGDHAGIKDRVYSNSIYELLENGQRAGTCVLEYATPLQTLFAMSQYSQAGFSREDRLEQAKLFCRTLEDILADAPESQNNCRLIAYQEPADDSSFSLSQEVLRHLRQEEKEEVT
Readout Label: ΔTm at 500 µM (°C)

Worked cases, ΔTm at 500 µM given:
For O=c1c2ncn([C@@H]3O[C@@H]4COP(=O)(O)O[C@H]5[C@@H](F)[C@H](n6cc7c8c(ncnc86)NCCC7)O[C@@H]5COP(=O)(S)O[C@@H]3[C@@H]4O)c2ncn1CCO (single isomer, unassigned) [52a] the compound record lists ΔTm at 500 µM as 5.6

For Nc1nc2c(ncn2[C@@H]2O[C@@H]3COP(=O)(S)O[C@H]4[C@@H](O)[C@H](n5cc6c7c(ncnc75)NCCC6)O[C@@H]4COP(=O)(S)O[C@@H]2[C@@H]3O)c(=O)[nH]1 (single isomer, unassigned) the compound record lists ΔTm at 500 µM as 5.2

(I) O=C(CO)NCCn1cnc2c(ncn2[C@@H]2O[C@@H]3COP(=O)(S)O[C@H]4[C@@H](F)[C@H](n5cc6c7c(ncnc75)SCCC6)O[C@@H]4COP(=O)(S)O[C@@H]2[C@@H]3O)c1=O (single isomer, unassigned) [50a]
(II) NCCNc1nc(N)c2ncn([C@@H]3O[C@@H]4COP(=O)(S)O[C@H]5[C@@H](O)[C@H](n6cc7c8c(ncnc86)NCCC7)O[C@@H]5COP(=O)(S)O[C@@H]3[C@@H]4O)c2n1 (single isomer, unassigned)
Could you determine which record has the numerically smaller ΔTm at 500 µM? Candidates: I and II Your answer should be the label of the entry you select.
II

(A) O=c1c2ncn([C@@H]3O[C@@H]4COP(=O)(S)O[C@H]5[C@@H](F)[C@H](n6cc7c8c(ncnc86)NCCC7)O[C@@H]5COP(=O)(S)O[C@@H]3[C@@H]4F)c2ncn1CCO (single isomer, unassigned) [44a]
(B) O=C(CO)NCCn1cnc2c(ncn2[C@@H]2O[C@@H]3COP(=O)(S)O[C@H]4[C@@H](F)[C@H](n5cc6c7c(ncnc75)NCCC6)O[C@@H]4COP(=O)(S)O[C@@H]2[C@@H]3O)c1=O (single isomer, unassigned) [36a]
When A and B are compared, which has the higher number for ΔTm at 500 µM? Your answer should be the label of the entry you select.
A
(A: 8.7 °C, B: 5.8 °C)
